src = the supplement of paper PMC11417369

System: PfSIP2 AP2 domain 1 (GST-tagged)
Method summary: gcPBM binding intensity (ln(normalized median fluorescence intensity)); higher = stronger DNA binding
Over roughly 25,000 sequences, “ln(normalized median fluorescence intensity)” has its median near 7.1; the highest 2% begin near 10. This is one part of a sample in which the highest values are shown more often than they occur.
Binary call on gcPBM binding intensity (ln): true from 9 upward, false beneath that.

Take a look at these entries with their results.
| Sequence data | Classification |
| --- | --- |
| ATTGTAAGGAAACACACACACATATATATGTATATA [CACACA_site676] | false |
| ATATATATATAGTGCACACTTAAGAATATAAAGAGG [CACACA_site1151] | true |

Answer whether gcPBM binding intensity (ln) of TCCTATGATGATGATAGTACATATGAGTTCAAAAAA [XGTACX_site273] is greater than or equal to 9.
false
